The measurements presented in this section are drawn from patent US12459987B2.

tested on: HSV-2 G infected cell lysates; test: ELISA binding of recombinant antibodies to HSV-2 G infected cell lysates; design: species or system HSV-2 G strain; conditions: Table 3 summary
Observable: Binding to HSV-lysate

- 33B8: monoclonal antibody from germinal center B cell; IgH SEQ ID NO: 28, IgL SEQ ID NO: 30 (antibody, V domains shown, 33B8 heavy chain; 33B8 light chain) VH: EVKLVESGGGLVQPGGSLSLSCATSGFTFTDYYMNWVRQPPGKALEWLGFIRNKANGYTTEYSASVKGRFTISRDNSQSILYLQMNSLRAEDSATYYCACGNYVGYAMDYWGQGTSVTVSSA VL: DIVMSQSPSSLAVSAGEKVTMSCKSSQSLLNSRTRKNYLAWYQQKPGQSPKLLIYWASTRESGVPDRFTGSGSGTDFTLTISSVQAEDLAVYYCKQSYNLYTFGGGTKLEIKR: Yes
- HSV010-15: gB-1 specific mouse monoclonal IgG; IgH SEQ ID NO: 72, IgL SEQ ID NO: 74 (antibody, V domains shown, HSV010-15 heavy chain; HSV010-15 light chain) VH: QVQLQQPGAELVKPGASVKLSCKASGYTFTSYWIHWVQQRPGQGLEWIGMIHPNSGITNYSEKFKSKATLTLDKSSSTAYMQLISLTSEDSAVYYCARGSSSGSAWFAYWGQGTLVTVSAA VL: DIQMTQSSSYLSVSLGGRVTITCKASDHINNWLPWYQQKPGNAPRLLISGATSLETGVPSRFSGSGSGKDYTLSITSLQTEDVATYYCQQYWSSPLTFGAGTKLELKR: Yes
